Test system: Fibroblast
Assay: Multiplex assay against human fibroblast
Assay type: toxicity, cell-based
Conditions: 48 h, 10 µM, compound concentration 10 uM, replicate 2
test-readout: Population Pyknosed Nuclei (%)
Response body: numeric value in %, unit text excluded.

Problem: Using the record for "Cc1nc2ccc(Oc3ccc(F)cc3)cc2c(=O)n1C[C@H]1CCCN(C(C)C)C1.Cl" , report its Population Pyknosed Nuclei (%).
Result: 12

Problem: Could you tell me which Population Pyknosed Nuclei (%) is on file for O=C(O)Cc1ccccc1Nc1c(Cl)cccc1Cl [DICLOFENAC] ?
Result: 14

Problem: Item under review: CC(C)(C)c1ccc(S(=O)(=O)Nc2ccc(Cl)cc2C(=O)c2cc[n+]([O-])cc2)cc1 [VERCIRNON] . Reported Population Pyknosed Nuclei (%)?
Result: 11

Problem: I'd like to know its Population Pyknosed Nuclei (%). The molecule in question is "Oc1c(CN2CCN(c3ccccn3)CC2)cc(Cl)c2cccnc12"
Result: 24

Problem: Would you kindly share the measured Population Pyknosed Nuclei (%) for "O=C(NCCO)c1cccc(-c2cc(Nc3ccc(OC(F)(F)F)cc3)ncn2)c1" ?
Result: 11

Problem: Any idea what Population Pyknosed Nuclei (%) was measured for CSc1ccccc1N1CCN(CCCCCC(=O)NC2CCCc3ccccc32)CC1.Cl (stereo not given) ?
Result: 8

Problem: Item under review: CCCC(CCC)C(=O)O [VALPROIC ACID] . Reported Population Pyknosed Nuclei (%)?
Result: 15

Problem: Field request: Population Pyknosed Nuclei (%) | item: "COc1c(C)cc(NC(=O)c2nn(Cc3ccc(F)cc3)c3c2CN(C(=O)c2ccc[nH]2)C[C@]3(C)C(N)=O)cc1C"
Result: 7

Problem: Using the record for CN1CCN2c3ncccc3Cc3ccccc3C2C1 (stereo not given) [MIRTAZAPINE] , report its Population Pyknosed Nuclei (%).
Result: 12

Problem: Entry under review: C[C@H](NC(=O)c1c(C(F)F)nn(C)c1Oc1cccc(C(F)(F)F)c1)c1ccc(C(=O)O)cc1 [PALUPIPRANT] . Reported Population Pyknosed Nuclei (%)?
Result: 9
